test.system: IRAK4 (Homo sapiens)
Construct: endogenous in cells; host or cells: OCI-LY10
Sequence (Q9NWZ3 whole entry): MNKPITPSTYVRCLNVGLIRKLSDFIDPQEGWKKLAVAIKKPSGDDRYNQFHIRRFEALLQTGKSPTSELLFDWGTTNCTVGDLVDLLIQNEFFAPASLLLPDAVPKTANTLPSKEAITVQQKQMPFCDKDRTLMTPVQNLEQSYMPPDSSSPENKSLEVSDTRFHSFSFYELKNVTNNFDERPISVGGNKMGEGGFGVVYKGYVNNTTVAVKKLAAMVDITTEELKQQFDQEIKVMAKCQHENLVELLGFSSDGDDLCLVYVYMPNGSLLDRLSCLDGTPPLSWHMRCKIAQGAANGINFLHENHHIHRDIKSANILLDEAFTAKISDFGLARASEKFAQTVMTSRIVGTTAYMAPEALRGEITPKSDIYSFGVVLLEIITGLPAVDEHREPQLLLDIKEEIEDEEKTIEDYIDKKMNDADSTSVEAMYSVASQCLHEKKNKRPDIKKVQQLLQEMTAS
run.description: IRAK4 MSD degradation in OCI-LY10
Type: cell-based
measurement.setup: OCI-LY10 cells, 24 hrs, Meso Scale Discovery
I'd appreciate it if you could supply DC50 values for the items below.

Illustrative cases are given below, each with its answer.
[
  {
    "compound": "COc1cc2nn([C@H]3CC[C@H](CN4CC[C@@H](c5c(Cl)ccc6c5n(C)c(=O)n6C5CCC(=O)NC5=O)[C@H](F)C4)CC3)cc2cc1NC(=O)c1cncc(C#N)c1 (stereo partly drawn)",
    "quantity.name": "DC50",
    "measured.value": "< 10 nM"
  },
  {
    "compound": "Cc1nn(C2CCC(=O)NC2=O)c2cccc(N3CC(N4CCN([C@H]5CC[C@@H](n6cc(NC(=O)c7cnn8ccc(N9C[C@H]%10C[C@@H]9CO%10)nc78)c(C(F)F)n6)CC5)CC4)C3)c12 (stereo partly drawn)",
    "quantity.name": "DC50",
    "measured.value": "> 200 nM"
  }
]

Next compound, please.
Ask: What value of DC50 has been recorded for this entry: CN(C[C@H]1CC[C@H](n2cc3cc(NC(=O)c4cccc(C(F)(F)F)n4)c(C#N)cc3n2)CC1)[C@@H]1CCN(c2cccc3c2n(C)c(=O)n3C2CCC(=O)NC2=O)C[C@@H]1F (stereo partly drawn)
Reply: < 10 nM

* * *

run.description: Rodent pharmacokinetics (rat PK)
Assay type: in vivo
measurement.setup: po, dosed intravenously or orally by gavage, plasma, read-out: F % (bioavailability)
quantity.name: bioavailability

[
  {
    "molecule": "CN(C[C@H]1CC[C@H](c2nc3cc(C(C)(C)O)c(NC(=O)c4cccc(C(F)(F)F)n4)cc3o2)CC1)[C@H]1CCN(c2cccc3c2n(C)c(=O)n3C2CCC(=O)NC2=O)C[C@H]1F (stereo partly shown)",
    "bioavailability": "≥ 5%"
  },
  {
    "molecule": "Cn1c(=O)n(C2CCC(=O)NC2=O)c2cccc([C@@H]3CCN(C[C@H]4CC[C@H](c5nc6cc(C(C)(C)O)c(NC(=O)c7cccc(C(F)(F)F)n7)cc6s5)CC4)C[C@H]3F)c21 (single isomer, unassigned)",
    "bioavailability": "≥ 5%"
  },
  {
    "molecule": "O=C1CCN(c2cc(C(=O)N3CCN(C[C@H]4CC[C@H](n5cc6cc(NC(=O)c7cncc(C(F)(F)F)n7)ccc6n5)CC4)CC3)ncc2Cl)C(=O)N1",
    "bioavailability": "≤ 5%"
  },
  {
    "molecule": "COc1cc2nn([C@H]3CC[C@H](CN4CC[C@@H](c5cccc6c5n(C)c(=O)n6C5CCC(=O)NC5=O)[C@H](F)C4)CC3)cc2cc1NC(=O)c1cccc(C#N)c1 (stereo partly shown)",
    "bioavailability": "≤ 5%"
  },
  {
    "molecule": "Cn1c(=O)n(C2CCC(=O)NC2=O)c2cccc([C@@H]3CCN(C[C@H]4CC[C@H](n5cc(NC(=O)c6cnn7ccc(N8C[C@H]9C[C@@H]8CO9)nc67)c(C(F)F)n5)CC4)CC3(F)F)c21 (single isomer, unassigned)",
    "bioavailability": "≤ 5%"
  },
  {
    "molecule": "CC(C)Oc1cc2nn([C@H]3CC[C@H](CN4CC[C@@H](c5cccc6c5n(C)c(=O)n6C5CCC(=O)NC5=O)[C@H](F)C4)CC3)cc2cc1NC(=O)c1cncc(C#N)c1 (stereo partly shown)",
    "bioavailability": "≤ 5%"
  },
  {
    "molecule": "COc1cc2nn([C@H]3CC[C@H](CN4CC[C@@H](c5cccc6c5n(C)c(=O)n6C5CCC(=O)NC5=O)C(F)(F)C4)CC3)cc2cc1NC(=O)c1cncc(C#N)c1 (single isomer, unassigned)",
    "bioavailability": "≤ 5%"
  },
  {
    "molecule": "COc1cc2nc([C@H]3CC[C@H](CN4CC[C@@H](c5cccc6c5n(C)c(=O)n6C5CCC(=O)NC5=O)[C@H](F)C4)CC3)oc2cc1NC(=O)c1cncc(C(F)(F)F)n1 (stereo partly shown)",
    "bioavailability": "≤ 5%"
  }
]

# map each molecule to its bioavailability
1. Cn1c(=O)n(C2CCC(=O)NC2=O)c2cccc(N3CC4(CCN(C[C@H]5CC[C@H](n6cc7cc(NC(=O)c8cncc(C(F)(F)F)n8)c(C(C)(C)O)cc7n6)CC5)CC4(F)F)C3)c21 (stereo partly shown)
2. Cn1c(=O)n(C2CCC(=O)NC2=O)c2cccc(N3CCC4(CCN(C[C@H]5CC[C@H](n6cc7cc(NC(=O)c8cccc(C(F)(F)F)c8)ncc7n6)CC5)CC4(F)F)CC3)c21 (stereo partly shown)

Reply:
1: ≥ 5%; 2: ≤ 5%
